Item-by-item account of IC50
- target-entity: α2 receptor
- test-name: Receptor affinity, 3H-rauwolscine binding
- Parameters: species or system rats
- run-conditions: 0.7 nmol/L 3H-rauwolscine; hydrochloride; read-out: Affinity to α2 receptor: concentration showing 50% inhibition between ligand and receptor
Structures can show the parent of a compound that is named as a salt.
# value in nM; strip the unit string

| molecule | IC50 / nM |
| --- | --- |
| CCCNC(CCC)Cc1cc2ccccc2o1 (single isomer, unassigned; (-)) [The compound of the invention, hydrochloride] | 3100 |

We now examine a further molecule.
Query: Given the entry CCCNC(CCC)Cc1cc2ccccc2o1.Cl (single isomer, unassigned; (+)) [(+)-Isomer, hydrochloride] , report its measured IC50.
Response: 2600

----------
The molecules listed here are annotated with their IC50.
- target-entity: α1 receptor
- test-name: Receptor affinity, 3H-prazocin binding
- run-conditions: 0.25 nmol/L 3H-prazocin; read-out: Affinity to α1 receptor: concentration showing 50% inhibition between ligand and receptor
Counter-ions that a name gives are not always drawn.

| molecule | target-entity | IC50 |
| --- | --- | --- |
| CCCNC(CCC)Cc1cc2ccccc2o1.Cl (racemic) [Racemic compound, hydrochloride] | α1 receptor | > 10 µM |

Turning to the following molecule.
Query: Return reported IC50; argument: CCCNC(CCC)Cc1cc2ccccc2o1 (single isomer, unassigned; (-)) [The compound of the invention, hydrochloride]
Response: > 10 µM

----------
- target-entity: 5-HT2 receptor (Rattus norvegicus)
- Sequence (P14842 whole entry): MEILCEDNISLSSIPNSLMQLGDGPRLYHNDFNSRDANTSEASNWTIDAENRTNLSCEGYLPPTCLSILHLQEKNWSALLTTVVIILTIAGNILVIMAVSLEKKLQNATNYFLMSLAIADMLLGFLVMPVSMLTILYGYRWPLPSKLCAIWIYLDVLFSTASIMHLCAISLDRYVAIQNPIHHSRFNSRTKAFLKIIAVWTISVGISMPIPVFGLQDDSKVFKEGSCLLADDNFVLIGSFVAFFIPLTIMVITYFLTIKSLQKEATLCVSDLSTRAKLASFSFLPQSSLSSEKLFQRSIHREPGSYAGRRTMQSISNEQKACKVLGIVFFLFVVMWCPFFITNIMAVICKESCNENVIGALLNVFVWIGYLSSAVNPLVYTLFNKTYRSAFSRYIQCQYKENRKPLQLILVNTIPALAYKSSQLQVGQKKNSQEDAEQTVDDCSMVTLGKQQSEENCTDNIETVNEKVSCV
outcome-measure: pIC50
Reminder that pIC50 means the negative base-10 logarithm of the concentration expressed in mol/L.

Query: Name the reported pIC50 value associated with the compound CCCNC(CCC)Cc1cc2ccccc2o1.Cl (racemic) [Racemic compound, hydrochloride]
Response: 4.70

----------
- target-entity: D2 receptor (Rattus norvegicus, UniProt P61169)
- Sequence (P61169 whole entry): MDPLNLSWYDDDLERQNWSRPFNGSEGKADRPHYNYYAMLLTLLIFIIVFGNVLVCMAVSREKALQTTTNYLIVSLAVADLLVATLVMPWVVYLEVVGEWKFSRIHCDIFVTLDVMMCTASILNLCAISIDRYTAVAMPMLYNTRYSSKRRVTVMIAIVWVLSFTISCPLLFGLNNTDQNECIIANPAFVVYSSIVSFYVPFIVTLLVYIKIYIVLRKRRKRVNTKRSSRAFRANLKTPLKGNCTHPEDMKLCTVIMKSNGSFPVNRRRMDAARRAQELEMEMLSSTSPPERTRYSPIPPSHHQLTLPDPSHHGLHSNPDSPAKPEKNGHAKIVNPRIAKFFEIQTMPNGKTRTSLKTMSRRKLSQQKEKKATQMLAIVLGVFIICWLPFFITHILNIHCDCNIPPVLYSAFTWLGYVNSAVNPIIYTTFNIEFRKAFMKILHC
- test-name: Receptor affinity, spiperone binding
pIC50: −log10 of the molar value. Counter-ions that a name gives are not always drawn.
outcome-measure: pIC50

Query: What value of pIC50 has been reported for the following compound? CCCNC(CCC)Cc1cc2ccccc2o1 (single isomer, unassigned; (-)) [The compound of the invention, hydrochloride]
Response: < 5.00

Query: For the compound shown here, CCCNC(CCC)Cc1cc2ccccc2o1.Cl (racemic) [Racemic compound, hydrochloride] , give the reported pIC50.
Response: < 5.00

----------
Entries and their pIC50
- target-entity: D1 receptor (Rattus norvegicus)
- Sequence (P18901 whole entry): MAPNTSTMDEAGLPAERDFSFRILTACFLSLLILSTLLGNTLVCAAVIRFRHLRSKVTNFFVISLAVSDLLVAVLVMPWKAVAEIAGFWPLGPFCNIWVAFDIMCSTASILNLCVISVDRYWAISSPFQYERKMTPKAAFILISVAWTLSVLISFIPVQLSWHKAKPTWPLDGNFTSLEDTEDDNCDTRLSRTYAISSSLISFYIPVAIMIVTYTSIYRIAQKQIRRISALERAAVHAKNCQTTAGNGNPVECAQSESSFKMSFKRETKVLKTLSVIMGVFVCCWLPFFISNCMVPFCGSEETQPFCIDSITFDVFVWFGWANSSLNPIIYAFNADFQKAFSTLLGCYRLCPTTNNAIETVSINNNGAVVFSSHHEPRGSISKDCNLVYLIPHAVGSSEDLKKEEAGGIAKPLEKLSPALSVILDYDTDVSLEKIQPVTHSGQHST
- test-name: Receptor affinity, 3H-SCH-23390 binding
pIC50: −log10 of the molar value. Structures can show the parent of a compound that is named as a salt.

| molecule | target-entity | reported-measurement |
| --- | --- | --- |
| CCCNC(CCC)Cc1cc2ccccc2o1 (single isomer, unassigned; (-)) [The compound of the invention, hydrochloride] | D1 receptor (Rattus norvegicus) | < 5.00 |

Query: pIC50 for CCCNC(CCC)Cc1cc2ccccc2o1.Cl (racemic) [Racemic compound, hydrochloride] ?
Response: < 5.00

----------
- target-entity: 5-HT1 receptor
- test-name: Receptor affinity, 3H-5-HT binding
- Set-up: species or system rats
- run-conditions: 2 nmol/L 3H-5-HT; read-out: Affinity to 5-HT1 receptor: concentration showing 50% inhibition between ligand and receptor
pIC50: −log10 of the molar value. Structures can show the parent of a compound that is named as a salt.
outcome-measure: pIC50

| compound | pIC50 |
| --- | --- |
| CCCNC(CCC)Cc1cc2ccccc2o1.Cl (racemic) [Racemic compound, hydrochloride] | < 5.00 |

Next:
Query: Which pIC50 reading was recorded for the compound CCCNC(CCC)Cc1cc2ccccc2o1 (single isomer, unassigned; (-)) [The compound of the invention, hydrochloride] ?
Response: < 5.00

Cited source: patent US6391914B1
